Measured on: Discoidin domain-containing receptor 2 (Homo sapiens)
Protocol summary: Inhibition of recombinant activated DDR2 tyrosine kinase domain (unknown origin) using histone H2B peptide substrate and [32P]ATP incubated for 15 mins
Readout label: pIC50
Answers are plain numbers, as −log10 of the molar value.

Query (compound): Oc1cccc(Nc2ccnc3cc(-c4cccc(CN5CCOCC5)c4)sc23)c1 ; field requested: pIC50
8.22

* * *

Measured on: Discoidin domain-containing receptor 2 (Homo sapiens, UniProt Q16832)
Sequence (Q16832 whole entry, the tested form may be a part): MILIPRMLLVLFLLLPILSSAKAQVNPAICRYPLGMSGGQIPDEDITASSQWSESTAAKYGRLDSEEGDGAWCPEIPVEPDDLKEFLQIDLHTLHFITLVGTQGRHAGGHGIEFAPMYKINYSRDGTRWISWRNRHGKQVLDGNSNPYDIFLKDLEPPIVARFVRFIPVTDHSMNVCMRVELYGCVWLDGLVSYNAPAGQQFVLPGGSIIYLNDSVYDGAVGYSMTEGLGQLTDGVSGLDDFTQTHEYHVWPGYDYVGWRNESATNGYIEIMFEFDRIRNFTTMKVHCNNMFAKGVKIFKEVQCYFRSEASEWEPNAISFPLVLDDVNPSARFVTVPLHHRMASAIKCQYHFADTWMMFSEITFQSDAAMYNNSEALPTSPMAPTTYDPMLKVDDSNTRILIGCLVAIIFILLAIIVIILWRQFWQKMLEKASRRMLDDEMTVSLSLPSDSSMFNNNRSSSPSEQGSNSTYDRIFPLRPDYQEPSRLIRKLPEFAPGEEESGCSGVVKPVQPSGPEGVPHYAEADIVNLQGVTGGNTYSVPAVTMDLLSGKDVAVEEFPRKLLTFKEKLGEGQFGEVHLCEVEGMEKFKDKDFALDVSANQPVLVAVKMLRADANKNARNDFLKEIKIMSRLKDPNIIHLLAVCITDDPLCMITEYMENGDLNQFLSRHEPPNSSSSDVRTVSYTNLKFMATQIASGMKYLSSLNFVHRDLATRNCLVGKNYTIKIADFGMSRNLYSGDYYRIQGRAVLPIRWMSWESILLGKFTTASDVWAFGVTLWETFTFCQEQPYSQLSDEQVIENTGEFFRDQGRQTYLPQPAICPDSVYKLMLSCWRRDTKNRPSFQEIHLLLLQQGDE
Protocol summary: Inhibition of recombinant non-activated DDR2 tyrosine kinase domain (unknown origin) using histone H2B peptide substrate and [32P]ATP incubated for 15 mins
Readout label: IC50 (nM)
Give bare numbers, in nM.

Query (compound): Oc1cccc(Nc2ccnc3cc(-c4cccc(CN5CCOCC5)c4)sc23)c1 ; field requested: IC50
145

* * *

Measured on: Discoidin domain-containing receptor 2 (Homo sapiens, UniProt Q16832)
Protocol summary: Binding affinity to DDR2 (unknown origin) by active-site dependent competition binding assay
Readout label: Kd (nM)
Numbers only, in nM.

Query (compound): CCc1ccc(C(=O)Nc2cc(CN3CCN(C)CC3)cc(C(F)(F)F)c2)cc1C#Cc1cnc2ccnn2c1 ; field requested: Kd
0.6

Reference source: ChEMBL document CHEMBL3421602
